MEASURE: melting point

1) CC(C)c1nn(-c2ccc(C(F)(F)F)cn2)cc1CCCOc1cccc(CC(=O)O)c1 82 to 83 °C
2) CCOc1cc(OCCCCc2cn(-c3ccc(C(F)(F)F)cn3)nc2OCC)ccc1CCC(=O)O 101 to 102 °C
3) Cc1cnn(CC(=O)O)c1OCCCc1cn(-c2ccc(C(F)(F)F)cn2)nc1C(C)C 123 to 124 °C
4) CCOc1cccc(CC(=O)O)c1OCCCc1cn(-c2ccc(C(F)(F)F)cn2)nc1C(C)C 141 to 142 °C
5) CCc1cccc(CC(=O)O)c1OCCCc1cn(-c2ccc(Cl)cn2)nc1C(CC)CC 114 to 115 °C
6) CCCc1nn(-c2ccc(C(F)(F)F)cn2)cc1CCCOc1ccc(CCC(=O)O)cc1 118 to 119 °C
7) CCCc1nn(-c2ccc(C(F)(F)F)cn2)cc1CCCOc1ccc(CCC(=O)O)c(OCC)c1 119 to 120 °C

* * *

SYSTEM: PPARγ-RXRα heterodimer (Homo sapiens)
Sequence (P37231 29-505): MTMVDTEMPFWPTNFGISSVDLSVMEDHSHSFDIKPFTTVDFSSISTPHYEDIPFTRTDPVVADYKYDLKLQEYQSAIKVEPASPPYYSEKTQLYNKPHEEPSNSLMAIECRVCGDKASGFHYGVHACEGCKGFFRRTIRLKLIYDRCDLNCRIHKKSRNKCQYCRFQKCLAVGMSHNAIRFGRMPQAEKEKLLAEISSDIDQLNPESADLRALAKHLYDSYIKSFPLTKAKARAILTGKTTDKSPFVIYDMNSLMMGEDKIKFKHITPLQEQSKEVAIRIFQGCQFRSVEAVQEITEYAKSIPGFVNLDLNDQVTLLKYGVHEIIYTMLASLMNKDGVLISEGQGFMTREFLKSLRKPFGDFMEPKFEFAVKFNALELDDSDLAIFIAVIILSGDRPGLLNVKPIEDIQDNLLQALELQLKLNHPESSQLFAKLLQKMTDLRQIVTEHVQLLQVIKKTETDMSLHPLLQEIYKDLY
Sequence (P19793 whole entry partner): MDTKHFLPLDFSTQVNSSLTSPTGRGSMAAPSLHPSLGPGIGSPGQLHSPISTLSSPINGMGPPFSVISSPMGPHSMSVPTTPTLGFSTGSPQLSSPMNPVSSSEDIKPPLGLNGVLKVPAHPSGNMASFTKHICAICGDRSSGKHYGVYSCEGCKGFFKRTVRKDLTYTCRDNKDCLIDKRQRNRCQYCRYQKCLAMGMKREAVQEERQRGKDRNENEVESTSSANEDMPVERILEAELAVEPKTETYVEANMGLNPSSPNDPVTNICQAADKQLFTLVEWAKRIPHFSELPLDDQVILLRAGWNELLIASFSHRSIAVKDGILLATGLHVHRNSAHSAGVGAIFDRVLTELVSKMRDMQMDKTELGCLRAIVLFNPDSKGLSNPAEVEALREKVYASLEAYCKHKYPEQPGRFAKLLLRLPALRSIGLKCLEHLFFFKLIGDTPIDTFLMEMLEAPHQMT
TEST_DESCRIPTION: PPARγ-RXRα heterodimer ligand activity, luciferase reporter in PPARγ:RXRα:4ERPP/CHO-K1 cells (Test Example 3)
DETAILS: 18-48 hours, concentration for 50% of the maximum fold induction
MEASURE: log10 EC50 (log10 of the value in nM)

COMPOUND	log10 EC50
CCC(CC)c1nn(-c2ccc(C(F)(F)F)cn2)cc1CCCOc1c(C)cccc1CC(=O)O	0.89
CCOc1nn(-c2ccc(C(F)(F)F)cn2)cc1CCCOc1cc(CCC(=O)O)n(-c2ccccc2)n1	1.28
CCC(C)c1nn(-c2ccc(C(F)(F)F)cn2)cc1CCCOc1c(CC(=O)O)cccc1OC (stereo not shown)	1.26
CCCc1nn(-c2ccc(C(F)(F)F)cn2)cc1CCCCOc1cc(CCC(=O)O)n(-c2ccccc2)n1	1.63
CCOc1cccc(CC(=O)O)c1OCCCc1cn(-c2ccc(C(F)(F)F)cn2)nc1C(CC)CC	1.08
CC(C)c1nn(-c2ccc(C(F)(F)F)cn2)cc1CCCOc1c(Cl)cccc1CC(=O)O	1.54
O=C(O)CCc1cc(OCCCc2cn(-c3ccc(C(F)(F)F)cn3)nc2-c2ccccc2)nn1-c1ccccc1	1.41
Cc1cccc(CC(=O)O)c1OCCCc1cn(-c2ccc(C(F)(F)F)nn2)nc1C(C)(C)C	1.61
COc1cccc(CC(=O)O)c1OCCCc1cn(-c2ccc(F)cn2)nc1C(C)C	1.95
O=C(O)Cc1ccccc1OCCCc1cn(-c2ccc(C(F)(F)F)cn2)nc1C1CCCCC1	1.57

* * *

COMPOUND	melting point
CCOc1cccc(CC(=O)O)c1OCCCc1cn(-c2ccc(Cl)cn2)nc1C(CC)CC [Example 225]	92 to 93 °C
CCc1cnn(CC(=O)O)c1OCCCc1cn(-c2ccc(C(F)(F)F)cn2)nc1C(CC)CC [Example 330]	124 to 125 °C
CCCc1nn(-c2ccc(C(F)(F)F)cn2)cc1CCCOc1c(CC(=O)O)cnn1CC [Example 326]	125 to 126 °C

* * *

Measured melting point by item
MEASURE: melting point

1. CCOc1nn(-c2ccc(C(F)(F)F)cn2)cc1CCOc1cc(CC(=O)O)n(C)n1 156 to 158 °C
2. CCCc1nn(-c2ccc(C(F)(F)F)cn2)cc1CCCOc1cccc(CC(=O)O)c1F 109 to 110 °C
3. O=C(O)Cc1cccc(OCCCCc2cc(-c3ccc(C(F)(F)F)cc3)no2)c1 134 to 135 °C
4. CC(C)c1nn(-c2ccc(Cl)cn2)cc1CCCOc1ccccc1CC(=O)O 141 to 142 °C
5. CC(C)c1nn(-c2ccc(C(F)(F)F)cn2)cc1CCCCOc1ccc(CCC(=O)O)cc1 144 to 145 °C
6. CC(C)c1nn(-c2ccc(C(F)(F)F)cn2)cc1CCCCOc1ccccc1CC(=O)O 125 to 126 °C
7. CCCc1nn(-c2ccc(C(F)(F)F)cn2)cc1CCCOc1ccc(CCC(=O)O)c(C)c1 124 to 126 °C
8. Cc1nn(-c2ccc(C(F)(F)F)cn2)cc1COc1ccc(OC(C)(C)C(=O)O)cc1 106 to 107 °C
9. COc1cccc(CC(=O)O)c1OCCCc1cn(-c2ccc(C(F)(F)F)cc2)nc1C(C)C 114 to 115 °C
10. CCOc1nn(-c2ccccn2)cc1CCCOc1ccc(CCC(=O)O)cc1OC 92 to 93 °C
11. CCCc1nn(-c2ccc(C(F)(F)F)cn2)cc1CCCCOc1cccc(CC(=O)O)c1 96 to 97 °C
12. CCOc1nn(-c2ccc(C(F)(F)F)cn2)cc1CCCOc1cc(CC(=O)O)cc(OC)c1 125 to 126 °C
13. CCCc1nn(-c2ccc(C(F)(F)F)cn2)cc1CCCOc1c(CC(=O)O)cccc1OC 122 to 123 °C
14. CCCc1nn(-c2ccc(C(F)(F)F)cn2)cc1CCCOc1cc(CCC(=O)O)cc(OC)c1 98 to 99 °C
15. COc1cccc(CC(=O)O)c1OCCCc1cn(-c2ccc(Cl)cn2)nc1C(C)C 148 to 149 °C
